I'd appreciate it if you could supply inhibition values for the items below.
System: Plasmodium falciparum
Assay: Inhibition of Plasmodium falciparum falcipain-2 using Z-Leu-Arg-AMC as substrate at 10 uM after 30 mins by spectrophotometric assay
Reply numerically in %, unit not repeated.

Task: # lookup: inhibition of `CCc1nnc(NC(=O)CCc2ccc(S(=O)(=O)Nc3ccc(F)cc3)cc2)s1`
Result: 72.9

Task: # lookup: inhibition of CC(C)C[C@H](NC(=O)[C@H]1O[C@@H]1C(=O)O)C(=O)NCCCCN=C(N)N [E-64]
Result: 97.4

Task: # lookup: inhibition of `COc1ccc(NC(=O)CCc2ccc(S(=O)(=O)NCCc3ccccc3)cc2)cc1O`
Result: 13.6

Task: # lookup: inhibition of `CCc1nnc(NC(=O)CCc2ccc(S(=O)(=O)NCCc3ccccc3)cc2)s1`
Result: 46.5

Task: # lookup: inhibition of `O=C(CCc1ccc(S(=O)(=O)NCCc2ccccc2)cc1)Nc1nc(-c2ccccc2)cs1`
Result: 94.5

Task: # lookup: inhibition of `COc1cccc(NS(=O)(=O)c2ccc(CCC(=O)Nc3ccc4c(c3)OCCO4)cc2)c1`
Result: 17.9

Task: # lookup: inhibition of `CCc1nnc(NC(=O)CCc2ccc(S(=O)(=O)Nc3ccc(F)c(Cl)c3)cc2)s1`
Result: 45.1

Task: # lookup: inhibition of `COc1ccc(NS(=O)(=O)c2ccc(CCC(=O)Nc3ccc4c(c3)OCCO4)cc2)cc1OC`
Result: 6.3

Task: # lookup: inhibition of `O=C(CCc1ccc(S(=O)(=O)NCCc2ccccc2)cc1)Nc1ccc2c(c1)OCCO2`
Result: 23

Task: # lookup: inhibition of `COc1ccc(NC(=O)CCc2ccc(S(=O)(=O)NCCc3ccccc3)cc2)cc1OC`
Result: 15

Task: # lookup: inhibition of `O=C(CCc1ccc(S(=O)(=O)NCCc2ccccc2)cc1)Nc1nc2ccccc2s1`
Result: 41.5

Task: # lookup: inhibition of `O=C(CCc1ccc(S(=O)(=O)NCCc2ccccc2)cc1)NCc1ccccn1`
Result: 10.7

Task: # lookup: inhibition of `O=C(CCc1ccc(S(=O)(=O)Nc2ccc(F)c(Cl)c2)cc1)Nc1ccc2c(c1)OCCO2`
Result: 32.7

Task: # lookup: inhibition of `O=C(CCc1ccc(S(=O)(=O)NCCc2ccccc2)cc1)NCc1cccs1`
Result: 15.2

###

I'd appreciate it if you could supply IC50 values for the items below.
Test: Inhibition of Plasmodium falciparum falcipain-2 using Z-Leu-Arg-AMC as substrate after 30 mins by spectrophotometric assay
Reply numerically in µM, unit not repeated.

Task: # lookup: IC50 of `O=C(CCc1ccc(S(=O)(=O)NCCc2ccccc2)cc1)Nc1nc(-c2ccccc2)cs1`
Result: 2.7

Task: # lookup: IC50 of CC(C)C[C@H](NC(=O)[C@H]1O[C@@H]1C(=O)O)C(=O)NCCCCN=C(N)N [E-64]
Result: 0.017

Task: # lookup: IC50 of `O=C(CCc1ccc(S(=O)(=O)NCCc2ccccc2)cc1)Nc1nc2ccccc2s1`
Result: 8.9

Task: # lookup: IC50 of `CCc1nnc(NC(=O)CCc2ccc(S(=O)(=O)Nc3ccc(F)c(Cl)c3)cc2)s1`
Result: 9.8

Task: # lookup: IC50 of `CCc1nnc(NC(=O)CCc2ccc(S(=O)(=O)Nc3ccc(F)cc3)cc2)s1`
Result: 7

Task: # lookup: IC50 of `CCc1nnc(NC(=O)CCc2ccc(S(=O)(=O)NCCc3ccccc3)cc2)s1`
Result: 8.1

Task: # lookup: IC50 of `O=C(CCc1ccc(S(=O)(=O)Nc2ccc(F)c(Cl)c2)cc1)Nc1ccc2c(c1)OCCO2`
Result: 13.2

Task: # lookup: IC50 of `O=C(CCc1ccc(S(=O)(=O)NCCc2ccccc2)cc1)Nc1ccc2c(c1)OCCO2`
Result: 54.2

Source listed as ChEMBL document CHEMBL1938236.
